target.desc: Fatty Acid Synthase (FAS) (Homo sapiens, UniProt P49327)
Construct: The FAS enzyme is prepared from HeLa cells; endogenous in cells
Sequence (P49327 whole entry): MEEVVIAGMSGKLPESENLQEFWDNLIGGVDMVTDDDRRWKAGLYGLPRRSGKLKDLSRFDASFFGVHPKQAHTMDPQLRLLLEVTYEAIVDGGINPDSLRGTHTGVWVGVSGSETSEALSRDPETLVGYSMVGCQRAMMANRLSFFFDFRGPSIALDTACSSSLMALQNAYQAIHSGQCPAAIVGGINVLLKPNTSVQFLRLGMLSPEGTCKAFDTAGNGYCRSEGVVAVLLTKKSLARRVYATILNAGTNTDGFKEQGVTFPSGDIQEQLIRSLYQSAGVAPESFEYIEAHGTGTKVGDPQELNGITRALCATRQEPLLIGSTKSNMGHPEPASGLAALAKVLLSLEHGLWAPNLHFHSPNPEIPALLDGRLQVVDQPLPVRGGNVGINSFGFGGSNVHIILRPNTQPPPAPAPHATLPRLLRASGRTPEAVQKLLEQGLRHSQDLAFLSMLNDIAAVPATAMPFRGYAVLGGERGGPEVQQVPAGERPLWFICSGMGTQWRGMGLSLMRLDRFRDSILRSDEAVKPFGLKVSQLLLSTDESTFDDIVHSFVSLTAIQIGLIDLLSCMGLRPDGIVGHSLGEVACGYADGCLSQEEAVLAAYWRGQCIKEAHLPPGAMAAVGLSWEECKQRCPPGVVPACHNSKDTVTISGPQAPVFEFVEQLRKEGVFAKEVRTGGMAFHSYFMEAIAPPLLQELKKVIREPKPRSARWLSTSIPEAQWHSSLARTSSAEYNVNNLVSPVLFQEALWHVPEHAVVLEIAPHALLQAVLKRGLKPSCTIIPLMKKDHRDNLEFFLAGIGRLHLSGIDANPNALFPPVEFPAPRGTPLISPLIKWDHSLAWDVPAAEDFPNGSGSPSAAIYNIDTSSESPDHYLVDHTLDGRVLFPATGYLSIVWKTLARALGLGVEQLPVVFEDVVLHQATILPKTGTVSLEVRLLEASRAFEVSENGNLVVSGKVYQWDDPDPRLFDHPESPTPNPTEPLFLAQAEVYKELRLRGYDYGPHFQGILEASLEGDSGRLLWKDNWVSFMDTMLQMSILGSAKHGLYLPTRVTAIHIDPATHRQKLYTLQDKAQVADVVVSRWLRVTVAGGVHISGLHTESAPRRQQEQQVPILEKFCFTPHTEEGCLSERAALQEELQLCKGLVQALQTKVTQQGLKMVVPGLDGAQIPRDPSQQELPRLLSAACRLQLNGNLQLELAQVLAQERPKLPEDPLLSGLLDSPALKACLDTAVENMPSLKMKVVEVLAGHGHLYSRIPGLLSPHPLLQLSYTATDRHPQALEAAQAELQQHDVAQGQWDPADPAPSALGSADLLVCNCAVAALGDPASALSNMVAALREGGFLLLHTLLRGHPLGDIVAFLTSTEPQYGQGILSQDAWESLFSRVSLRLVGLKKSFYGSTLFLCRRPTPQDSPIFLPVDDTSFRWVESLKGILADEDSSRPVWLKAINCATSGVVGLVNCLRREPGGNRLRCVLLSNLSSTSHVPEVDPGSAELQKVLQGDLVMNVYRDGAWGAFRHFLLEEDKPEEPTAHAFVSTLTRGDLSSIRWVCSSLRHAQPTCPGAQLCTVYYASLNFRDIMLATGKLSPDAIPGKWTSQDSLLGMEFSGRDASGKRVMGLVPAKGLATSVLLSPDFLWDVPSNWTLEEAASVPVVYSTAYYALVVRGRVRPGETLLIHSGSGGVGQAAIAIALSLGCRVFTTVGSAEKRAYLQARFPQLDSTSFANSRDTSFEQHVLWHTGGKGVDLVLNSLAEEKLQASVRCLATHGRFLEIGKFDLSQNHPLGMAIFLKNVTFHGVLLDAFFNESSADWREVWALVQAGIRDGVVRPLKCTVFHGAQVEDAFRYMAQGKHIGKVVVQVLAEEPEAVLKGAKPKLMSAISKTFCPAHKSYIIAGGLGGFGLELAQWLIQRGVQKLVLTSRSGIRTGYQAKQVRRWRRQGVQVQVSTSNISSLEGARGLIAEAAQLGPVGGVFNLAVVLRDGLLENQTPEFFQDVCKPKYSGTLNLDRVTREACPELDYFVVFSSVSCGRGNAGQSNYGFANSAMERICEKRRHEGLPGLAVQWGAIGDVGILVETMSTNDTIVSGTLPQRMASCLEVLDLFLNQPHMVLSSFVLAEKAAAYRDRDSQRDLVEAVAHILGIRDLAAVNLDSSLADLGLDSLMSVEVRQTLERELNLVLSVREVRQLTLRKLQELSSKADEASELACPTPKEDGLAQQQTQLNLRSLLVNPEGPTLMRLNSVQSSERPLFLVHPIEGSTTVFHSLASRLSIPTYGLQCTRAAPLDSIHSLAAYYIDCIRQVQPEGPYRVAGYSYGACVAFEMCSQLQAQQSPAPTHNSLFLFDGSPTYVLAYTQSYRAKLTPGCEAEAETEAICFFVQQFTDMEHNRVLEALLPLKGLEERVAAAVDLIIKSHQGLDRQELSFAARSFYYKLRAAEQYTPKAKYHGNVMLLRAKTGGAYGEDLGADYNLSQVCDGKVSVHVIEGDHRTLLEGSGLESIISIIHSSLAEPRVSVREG
assay.comment: Human FAS Enzyme Assay
test.settings: FAS enzyme prepared from HeLa cells; NADPH consumption; read-out: IC50 (potency range)
readout.kind: IC50

What IC50 value was documented for this compound, CC(=O)N[C@H]1CC[C@@H](C(=O)N(C)c2ccc(-c3ccccc3)cc2)C1 [Example 3.3] ?
≤ 500 nM

Cool, now COCC(=O)N[C@H]1CC[C@@H](C(=O)N(C)c2ccc(-c3nc4ccccc4o3)cc2)C1 [Example 1.5]
500 to 3000 nM

Cool, now CCC(=O)N[C@H]1CC[C@@H](C(=O)N(C)c2ccc(-c3nc4ccccc4o3)cc2)C1 [Example 1.2]
≤ 500 nM

Cool, now CN(C)CCCCCC(=O)N[C@H]1CC[C@@H](C(=O)N(C)c2ccc(-c3ccccc3)cc2)C1 [Example 3.5]
500 to 3000 nM

Cool, now CN(C(=O)[C@@H]1CC[C@H](NC(=O)C(F)F)C1)c1ccc(-c2nc3ccccc3o2)cc1 [Example 1.8]
≤ 500 nM

Cool, now CCNC(=O)N[C@H]1CC[C@@H](C(=O)N(C)c2ccc(-c3ccccc3)cc2)C1 [Example 3.4]
500 to 3000 nM

Cool, now CN(C)C(=O)N[C@H]1CC[C@@H](C(=O)N(C)c2ccc(-c3nc4ccccc4o3)cc2)C1 [Example 1.7]
≤ 500 nM

Cool, now CCC(=O)N[C@H]1CC[C@@H](C(=O)N(C)c2ccc(-c3ccccc3)cc2)C1 [Example 3.1]
≤ 500 nM

Cool, now CC(C)C(=O)N[C@H]1CC[C@@H](C(=O)N(C)c2ccc(-c3ccccc3)cc2)C1 [Example 3.2]
≤ 500 nM

Cool, now CC(C)C(=O)N[C@H]1CC[C@@H](C(=O)N(C)c2ccc(-c3nc4ccccc4[nH]3)cc2)C1 [Example 2.3]
500 to 3000 nM

Cool, now CCC(=O)N[C@H]1CC[C@@H](C(=O)N(C)c2ccc(-c3nc4ccccc4n3C)cc2)C1 [Example 5.1]
≤ 500 nM

Cool, now CC(=O)N[C@H]1CC[C@@H](C(=O)N(C)c2ccc(-c3nc4ccccc4[nH]3)cc2)C1 [Example 2.2]
500 to 3000 nM

Cool, now CCNC(=O)N[C@H]1CC[C@@H](C(=O)N(C)c2ccc(-c3nc4ccccc4n3C)cc2)C1 [Example 4.1]
500 to 3000 nM

Cool, now CCNC(=O)N[C@H]1CC[C@@H](C(=O)N(C)c2ccc(-c3nc4ccccc4o3)cc2)C1 [Example 1.1]
500 to 3000 nM

Cool, now CCNC(=O)N[C@H]1CC[C@@H](C(=O)N(C)c2ccc(-c3nc4ccccc4[nH]3)cc2)C1 [Example 2.4]
≤ 500 nM

Cool, now CN(C)CCCCCC(=O)N[C@H]1CC[C@@H](C(=O)N(C)c2ccc(-c3nc4ccccc4o3)cc2)C1 [Example 1.4]
500 to 3000 nM
